measurement description: Toxicity liver stage against HepG2, at 10uM
Format: cell-based
Parameters: test concentration 10 uM, cell line HepG2-A16-CD81EGFP
experimental context: human, HepG2-A16-CD81EGFP cells; read-out: INHIBITION
measurement type: cytotoxicity at 10 µM (%)
Report only the number, with the unit % understood.

Exam item: Given CCc1cnc(CN(C)C2CCN(CC(=O)Nc3cc(C)on3)C2)o1 (stereo unspecified) , state its recorded cytotoxicity at 10 µM.
Marked response: 0.2

Exam item: Do the same for Cc1c(C(=O)NS(=O)(=O)c2ccsc2)cnn1CC(C)C please
Marked response: 11.6

Exam item: Do the same for O=C(CCc1nccs1)N1CCN(c2ccccc2F)CC1 please
Marked response: -9.42

Exam item: Do the same for Cc1ccc(Oc2cc(F)ccc2O[C@@H]2CCC[C@@H](N)[C@H]2O)cc1 please
Marked response: -3.89

Exam item: Do the same for Cc1nc(C)c(CC(=O)Nc2ncc(C)s2)c(=O)[nH]1 please
Marked response: -5.49

Exam item: Do the same for Cc1ncccc1NC(=O)[C@H]1C[C@@H]2CCN(Cc3nccs3)C[C@@H]2O1 please
Marked response: 0.976

Exam item: Do the same for Cc1noc(CCCC(=O)NCC2CCS(=O)(=O)C2)n1 (stereo unspecified) please
Marked response: -16.4

Exam item: Do the same for CN(C(=O)CNc1ccc(C#N)cc1)C1CCN(c2ccccn2)CC1 please
Marked response: 18.7

Exam item: Do the same for CCCc1nc(C(C)(C)NC(=O)C2CC(=O)N(CC(C)C)C2)no1 (stereo unspecified) please
Marked response: -5.31

Exam item: Do the same for CSc1nnc(C2CCN(C(=O)N3CCCC3)CC2)n1C(C)C please
Marked response: 8.54

Exam item: Do the same for O=C1CCC2(CCCN(C(=O)Cc3ccccn3)C2)N1 (stereo unspecified) please
Marked response: 4

* * *

measurement description: Toxicity liver stage against HepG2, at 10uM
Type: cell-based
Design: test concentration 10 uM, cell line HepG2-A16-CD81EGFP
experimental context: human, HepG2-A16-CD81EGFP cells; read-out: INHIBITION
measurement type: cytotoxicity at 10 µM (%)
Report only the number, with the unit % understood.

Exam item: Given Cc1ccc(NC2CCN(C(=O)CCNc3ncccn3)CC2)nn1 , state its recorded cytotoxicity at 10 µM.
Marked response: -7.69

Exam item: Do the same for c1cncc(CN2CCCC(Nc3ncnc4c3CCNCC4)C2)c1 (centres undefined) please
Marked response: 4.42

Exam item: Do the same for COCCN1C2(CCN(C(=O)c3cccs3)C2)c2ccccc2S1(=O)=O (centres undefined) please
Marked response: -131

Exam item: Do the same for CCNc1cc2c(nn1)CCN(C(=O)c1cc(C)n(C3CC3)c1C)C2 please
Marked response: -0.282

Exam item: Do the same for COc1cc(C(=O)NCc2cc(N3CCOCC3)ncn2)ccn1 please
Marked response: -10.8

Exam item: Do the same for CC(=O)NCCNC(=O)CN1CCCCC1Cn1cncn1 (centres undefined) please
Marked response: 2.7

Exam item: Do the same for c1ccc(Cn2cncn2)c(CNCC2CNc3ccnn3C2)c1 (centres undefined) please
Marked response: -3.61

Exam item: Do the same for CN(C)c1ccc(C(=O)N2CCCC2c2ccc(Cl)cc2)nn1 (centres undefined) please
Marked response: -10.7

Exam item: Do the same for CC(C)CSCCN1CCN(S(C)(=O)=O)CC1 please
Marked response: -3.66

Exam item: Do the same for COCCOCCNC(=O)N1CCc2c(F)ccc(F)c2C1 please
Marked response: -2.23

Exam item: Do the same for CCN1CCCC1CN(Cc1ccoc1)CC1CCN(CCOC)CC1 (centres undefined) please
Marked response: -2.64

Exam item: Do the same for COCC1CN(Cc2ccc(C)o2)Cc2cn(C)nc21 (centres undefined) please
Marked response: -9.2

Exam item: Do the same for CCN(CC)C1(Cc2cc(-c3cccc(O)c3)on2)COC1 please
Marked response: 7.71

Exam item: Do the same for CC1(C)CN(Cc2cc(C3CCCCC3)no2)CC[C@]1(C)O please
Marked response: -4.59

Exam item: Do the same for Cc1nn(C)c(C)c1-c1ccnc(N(C)Cc2nc(C(C)C)no2)n1 please
Marked response: 20.6

Exam item: Do the same for CC(=O)N1CCCC2(CN(Cc3ccncc3)CCO2)C1 (centres undefined) please
Marked response: 7.22

Exam item: Do the same for c1cnnc(N2CCCC2CNCc2nc(-c3ccsc3)no2)c1 (centres undefined) please
Marked response: -7.7

Exam item: Do the same for c1cncc(O[C@H]2CC[C@H]3[C@H]2OCCN3C2CCCC2)c1 please
Marked response: -6.05

Exam item: Do the same for COCC(=O)N1CCC2(CC1)CN(CC1CC1)c1ccc(F)cc12 please
Marked response: -103

Exam item: Do the same for O=C1CCCN1CCN1CCCC(c2ccn[nH]2)C1 (centres undefined) please
Marked response: -16.7

Exam item: Do the same for O=S(=O)(c1ccccc1)N1CCC[C@]2(C[C@H](OCC3CC3)CO2)C1 please
Marked response: -75.9

Exam item: Do the same for Cc1ccc(-c2nc(CN3CCC(N4CCNC4=O)CC3)co2)cc1 please
Marked response: -7.73

Exam item: Do the same for CC(C)NC(=O)Cn1ccc2c(Cl)cccc21 please
Marked response: 7.46

Exam item: Do the same for COC[C@H]1CCC[C@]12CN(CCc1ccccc1)CCO2 please
Marked response: 4.34

Reference for the values: ChEMBL document CHEMBL4513216
